Some binders, each annotated with its measured % inhibition.
# STUDY SYSTEM: T1, recombinant human EGFR extracellular domain with 6xHis (human, UniProt P00533 25-645)
# T1 construct: In-house produced; also called 6xHis EGFR ECD; soluble human EGFR ECD; not shown: 6xHis tag
# TEST METHOD NOTES: SPR competition, competitor Erbitux
READOUT NAME: % inhibition

BINDER	READOUT NAME	READING
antibody 1024 (antibody, human IgG1, kappa, V domains shown, Chimeric IgG1 kappa) VH: QVQLQQPGAELVEPGGSVKLSCKASGYTFTSHWMHWVKQRPGQGLEWIGEINPSSGRNNYNEKFKSKATLTVDKSSSTAYMQFSSLTSEDSAVYYCVRYYGYDEAMDYWGQGTSVTVSS VL: DIVMTQAAFSNPVTLGTSASISCRSSKSLLHSNGITYLYWYLQKPGQSPQLLIYQMSNLASGVPDRFSSSGSGTDFTLRISRVEAEDVGVYYCAQNLELPYTFGGGTKLEIKR	% inhibition	104%
antibody 1042 (antibody, human IgG1, kappa, V domains shown, Chimeric IgG1 kappa; RA- left out of the VH entry) VH: QVQLQQPGAELVKPGASVKLSCKASGYTFTSHWMHWVQQRPGQGLEWIGEIHPSNGRTNYNEKFKNKATLTVDKSPSTAYMQLSSLTSEDSAVYYCARYYGYDDAMDYWGQGTSVTVSS VL: DIVMTQAAFSNPVTLGTSASISCRSSKSLLHSNGITYLYWYLQKPGQSPQLLIYQMSNLASGVPDRFSSSGSRTDFTLRISRVEAEDVGVYYCAQNLELPYTFGGGTKLEIKR	% inhibition	107%
antibody 1344 (antibody, human IgG1, kappa, V domains shown, Chimeric IgG1 kappa) VH: QVQLKESGPGLVAPSQSLSITCTVSGFSLTIYGVHWVRQPPGKGLEWLGVIWAGGNTNYNSALMSRLSISKDNSKSQVFLKMNSLQTDDTAMYFCARGYGYNLDYWGQGTTLTVSS VL: DIQMTQTTSSLSASLGDRVTISCSASQGISNYLNWYQQKPDGTVKLLIYYTSSLHSGVPSRFSGSGSGTDYSLTISNLEPEDIATYYCQQYSKLPYTFGGGTKLEIKR	% inhibition	-4%
